# Test system: MDA-MB-231
# Protocol: NCI tumour cell line growth inhibition, 48 h
The source made the active and inactive calls. Cut-off read from the data, not from the text of the source: active = GI50 up to about 1.1 µM and inactive = higher.
# reported GI50; entries follow

Given the molecule CC(C)=CCC/C(C)=C\CCC1(C)OC(=O)C2CC21 (configuration not stated) , what is its reported GI50?
50.5 µM (inactive)

Query c1cc2c(cc1C1=NCCN1)c1cc(C3=NCCN3)ccc1n2CC1CCCCC1 next
16.6 µM (inactive)

Query COc1cc(C2S/C(=C/c3ccccc3)C(=O)N2c2cccc(Cl)c2)cc(OC)c1OC (configuration not stated) next
> 100 µM (inactive)

Query Clc1ncnc(Cl)c1Cl next
> 100 µM (inactive)

Query O=C1O/C(=C\c2ccc(O)cc2)C(c2ccc(O)c(Cl)c2)=C1Cl next
77.4 µM (inactive)

Query CCOP(=O)(O)CC1OC(CO)C(O)C1O (configuration not stated) next
> 100 µM (inactive)

====

# reported GI50; entries follow
# Tested on: DMS-273
# Protocol: NCI tumour cell line growth inhibition, 48 h
Calls of active or inactive are those of the source. Cut-off read from the data, not from the text of the source: active = GI50 up to about 1.1 µM and inactive = higher.

Some molecules with known GI50 results, for comparison:
1) NC(=O)C(=O)n1ncc(Cl)c(Cl)c1=O
25 µM (inactive)
2) Cc1nc2c(n1C)C(=O)c1nc(CBr)[nH]c(=O)c1C2=O
> 100 µM (inactive)
3) Cn1c2ccccc2c(=O)c2c(O)cc3c(c21)CC(C1(C)CO1)O3 (stereo not given)
21.9 µM (inactive)
4) Cc1cc2c(C(C)C)c(O)c(O)c(/C=N\CCO)c2c(O)c1-c1c(C)cc2c(C(C)C)c(O)c(O)c(/C=N/CCO)c2c1O
1.62 µM (inactive)

Next:
Given the molecule N#CC1=C(c2ccccc2)OC2(N)OC(c3ccccc3)=C(C#N)C12C#N (stereo not given) , what is its reported GI50?
> 100 µM (inactive)

====

# reported GI50; entries follow
# System: SK-MEL-28
# Protocol: NCI tumour cell line growth inhibition, 48 h
Calls of active or inactive are those of the source. Rule as the data show it: active = GI50 up to about 1.1 µM and inactive = higher.

1. COc1ccc2c(c1)Cc1cc(/N=[N+](\[O-])c3ccc4c(c3)Cc3cc(OC)ccc3-4)ccc1-2
75.2 µM (inactive)
2. COc1c(OC2OC(CO)C(O)C(O)C2O)cc2c(c1OC)-c1ccc(OC)c(=O)cc1[C@@H](NC(C)=O)CC2 (some centres not stated)
59.4 µM (inactive)
3. Cc1cc2c(cc1Cl)Sc1nnc(Nc3ccccc3)n1S2(=O)=O
15.8 µM (inactive)
4. CC(Nc1ncc2c(n1)-c1ccccc1OC2)C(=O)O (configuration not stated)
> 100 µM (inactive)
5. Cn1cc(C=C(C#N)C#N)c(=O)n(C)c1=O
> 100 µM (inactive)
6. C[N+](C)(C)c1ncnc2c1ncn2C1CCCO1 (configuration not stated)
> 100 µM (inactive)

Next:
Given the molecule Cc1ncc([N+](=O)[O-])n1CCNC(=O)Cn1c([N+](=O)[O-])cnc1C , what is its reported GI50?
> 100 µM (inactive)

====

# Test system: HOP-92
# Protocol: NCI tumour cell line growth inhibition, 48 h
The source made the active and inactive calls. Cut-off read from the data, not from the text of the source: active = GI50 up to about 1.1 µM and inactive = higher.
Value type: GI50

Some compounds with known GI50 results, for comparison:
1) CS(=O)(=O)OCCN(CCOS(C)(=O)=O)c1ccc(/C=N/c2cccc(Cl)c2)cc1
23.8 µM (inactive)
2) O=c1cc(CN2CCCCC2)nc2ccc3c(O)cc(CN4CCCCC4)nc3n12
26.2 µM (inactive)
3) CCCC(O)c1cn(-c2cccc(S(=O)(=O)O)c2)nn1 (stereo not given)
> 100 µM (inactive)

Given the compound CN1C(=O)c2c(ccc3c2OCO3)C2C(O)Cc3cc4c(cc3C21)OCO4 (stereo not given) , what is its reported GI50?
5.79 µM (inactive)

Query c1ccc2c(NCCCCCCCCNc3cccc4ccccc34)cccc2c1 next
18.2 µM (inactive)

Query COC(=O)N1CC2(CO)C3CC=C(C(=O)Nc4ccccc4Br)C2C1C3Br (stereo not given) next
> 50 µM (inactive)

Query CC(C)(C)NNC(=O)/C(=C/c1ccc([N+](=O)[O-])cc1)NC(=O)c1ccccc1 next
> 100 µM (inactive)

Query Cc1ccccc1C(C#N)/C(=N/NC(=O)c1cc2ccccc2cc1O)C(=O)Nc1cccc(Cl)c1 (stereo not given) next
26.4 µM (inactive)

Query CCCc1cn2c(/C=N/N=C(N)N)c(-c3c(OC)ccc(OC)c3[N+](=O)[O-])nc2s1 next
12.5 µM (inactive)

Query COc1cccc(-c2c(C#N)c(N)nc3c2CCS(=O)(=O)c2ccc(C)cc2-3)c1 next
> 100 µM (inactive)

====

# Tested on: OVCAR-8
# Protocol: NCI tumour cell line growth inhibition, 48 h
Active and inactive are the calls of the source. No stated cut-off is given here; in the data, active = GI50 up to about 1.1 µM and inactive = higher.
Allowed answers: true = active, false = inactive

1) COc1cc(/C=C2\C(=O)N(c3ccccc3)C(c3ccccc3)S2(=O)=O)cc(OC)c1OC (configuration not stated)
false
2) Cc1ccc(NC(=O)c2cc(S(=O)(=O)Nc3n[nH]c(=O)n3-c3ccccc3)c(S)cc2Cl)cc1
false
3) O=c1[nH]nc(Cc2ccc(Cl)cc2)n1/N=C/c1ccco1
false
4) CC1OC2OC3C(OCC(O)C3O)OC(=O)[C@]34CCC(C)(C)CC3C3=CCC5[C@@]6(C)C[C@H](O)[C@H](OC7OC(CO)C(O)C(O)C7OC7OC(COC(=O)CC(C)(O)CC(=O)OC1C(OC1OC(CO)C(O)C(O)C1O)C2O)C(O)C(O)C7O)[C@@](C)(CO)C6CC[C@@]5(C)[C@]3(C)CC4 (some centres not stated)
false
5) COC(=O)C1=C(OC)[C@H]2C#C/C=C\C#C[C@@H]3Nc4c(cc(O)c5c4C(=O)c4ccccc4C5=O)[C@]24O[C@@]34[C@H]1C
true

Outcome? O=C(OCCO)C1CC2CC1C1(C2)OCCO1 (configuration not stated)
false

Query CC(C)=C[C@@H]1C[C@H](C)c2c(O)cc(C)c3c2C1=C(C)C(=O)C3=O [ELISABATIN A] next
false

====

# Test system: UO-31
# Protocol: NCI tumour cell line growth inhibition, 48 h
Active and inactive are the calls of the source. Rule as the data show it: active = GI50 up to about 1.1 µM and inactive = higher.
Allowed answers: active, inactive

1) N#CC(C#N)=CNC(=S)Nc1ccc(S(=O)(=O)Nc2nccs2)cc1
inactive

Outcome? Cc1ccc(N2Cc3c(ccc4ccccc34)OP2(=S)N2CCCC2)cc1 (configuration not stated)
inactive

Query O=c1[nH]nc(Cc2ccc(Cl)cc2)n1/N=C/c1ccco1 next
inactive

Query COC(=O)C1=C(O)C(O)=C(C(=O)OC)CC1 next
inactive

Query O=NN(CC1(O)OCC(O)C(O)C1O)C(Cc1c[nH]c2ccccc12)C(=O)O (configuration not stated) next
inactive

Query C=C(C)[C@@H]1C[C@H]2O[C@](O)(C(=C)CC(=O)/C=C(/C)C[C@@H]3OC(=O)[C@]24O[C@@H]34)[C@H]1O next
inactive

Query CCN(CC)CCOc1ccccc1/C=C/c1noc2ccccc12 next
inactive

====

# System: PC-3
# Protocol: NCI tumour cell line growth inhibition, 48 h
Calls of active or inactive are those of the source. Cut-off read from the data, not from the text of the source: active = GI50 up to about 1.1 µM and inactive = higher.
Value type: GI50

Some compounds with known GI50 results, for comparison:
1. COC(=O)/C(C#N)=C(/NCCN)Nc1ccccc1
> 100 µM (inactive)
2. CC1(C)OC[C@@H]([C@H](C=O)OCc2ccccc2)O1
> 100 µM (inactive)
3. O=c1c(Cc2ccc(Cl)cc2)nnc2sc(-c3ccc(-c4ccc(F)c(Cl)c4)o3)nn12
57.1 µM (inactive)
4. c1ccc2c(c1)CCN2CCN1CCc2ccccc21
> 10 µM (inactive)
5. C/C(=N\NC(=O)c1ccncc1)c1cccc(F)c1
> 10 µM (inactive)
6. Cc1nc(/C(=N\n2cnnc2)Nc2ccc(Br)cc2)no1
> 100 µM (inactive)

Next:
Return GI50 measured with PC-3 given this compound: COc1ccc(C)cc1Nc1nnc(-c2ccccc2N)s1
35 µM (inactive)

====

# System: HCT-116
# Protocol: NCI tumour cell line growth inhibition, 48 h
Calls of active or inactive are those of the source. No stated cut-off is given here; in the data, active = GI50 up to about 1.1 µM and inactive = higher.
Allowed answers: Yes (active), No (inactive)

Outcome? CCN(CC)Cc1cc(Nc2c3ccccc3nc3c2[nH]c2ccccc23)ccc1O
Yes

Query CCOC(=O)[C@H]1Nc2ccc(O)cc2C2c3ccccc3CC21 (stereo not given in full) next
No

Query c1ccc2c(NCCCCCCCCNc3cccc4ccccc34)cccc2c1 next
No

Query O=C(OCCN1CCCCC1)C(c1ccccc1)C1(O)CCSCC1 (stereo not given) next
No

Query CO[C@H](C(=O)[C@@H](O)[C@@H](C)O)[C@@H]1Cc2cc3cc(OC4CC(OC5CC(O)C(O)C(C)O5)C(O)C(C)O4)c(C)c(O)c3c(O)c2C(=O)[C@H]1OC1CC(OC2CC(OC3CC(C)(O)C(O)C(C)O3)C(O)C(C)O2)C(O)C(C)O1 (stereo not given in full) next
Yes

====

# reported GI50; entries follow
# Test system: HT-29
# Protocol: NCI tumour cell line growth inhibition, 48 h
Activity calls are given as the source filed them. Cut-off read from the data, not from the text of the source: active = GI50 up to about 1.1 µM and inactive = higher.

1) COc1cc(OC(=O)c2ccccc2)cc2c1C(=O)C=CC2=O
14.1 µM (inactive)
2) N#Cc1ccccc1NC(=O)C(=O)C(C(=O)c1ccncc1)C1OC(=O)c2ccccc21 (stereo not drawn)
> 100 µM (inactive)
3) CC1OC2OC3C(OCC(O)C3O)OC(=O)[C@]34CCC(C)(C)CC3C3=CCC5[C@@]6(C)C[C@H](O)[C@H](OC7OC(CO)C(O)C(O)C7OC7OC(COC(=O)CC(C)(O)CC(=O)OC1C(OC1OC(CO)C(O)C(O)C1O)C2O)C(O)C(O)C7O)[C@@](C)(CO)C6CC[C@@]5(C)[C@]3(C)CC4 (stereo partly drawn)
1.52 µM (inactive)

Given the compound COc1cccc2c(=O)oc(-c3ccc(C(C)(C)C)cc3)nc12 , what is its reported GI50?
41.7 µM (inactive)

Query O=C(OCCN1CCCCC1)C(c1ccccc1)C1(O)CCSCC1 (stereo not drawn) next
> 100 µM (inactive)

Query O=C1CN(c2cccc(C(F)(F)F)c2)C(=O)CN1NCNN1CC(=O)N(c2cccc(C(F)(F)F)c2)CC1=O next
> 100 µM (inactive)

Query S=C1Nc2ccccc2SC1c1ccccc1 (stereo not drawn) next
> 100 µM (inactive)

Query CC1(C)CSCC(C)(C)C(=N/N)/C1=N\N next
> 100 µM (inactive)

Numbers sourced from ChEMBL document CHEMBL1201862.
